Parameter TGI: see the listing below.
tested on: MALME-3M melanoma; assay: NCI tumour cell line growth inhibition, 48 h
measured.metric: TGI

> print(dat)
                                    compound  measured.metric       val
 1  CNC(=O)CNC(=O)N(C[C@@H]1CCCN1C(=O)[C@H](CC(C)C)NC(=O)OC(C)(C)C)C(C)C              TGI  > 100 µM
 2    CC#CCCCC1(C)CCNC1=S (stereo not given)              TGI   > 10 µM
 3  COc1ccc(-c2cc(-c3ccc(Nc4ccnc5cc(Cl)ccc45)cc3)[nH]c(=O)c2C#N)cc1              TGI  > 100 µM
 4  N#CC(/C(CCCC(=O)Nc1cccc([N+](=O)[O-])c1)=N\NC(=O)c1c(O)ccc2ccccc12)c1nc2ccccc2s1 (stereo not given)              TGI  > 100 µM
 5           CCOC(=O)c1nc2cc(Cl)ccc2[nH]c1=O              TGI  > 100 µM
 6        CN(C)S(=O)(=O)c1nc(Cl)c2[nH]cnc2n1              TGI  > 100 µM
 7         COc1ccc(C2=Nc3ccccc3N=C(SC)C2)cc1              TGI  > 100 µM
 8    Oc1[nH]c2ccccc2c1C=Nc1ccc(-n2cncn2)cc1              TGI   > 25 µM
 9        COc1ccc(/C=C/C(=O)c2ccc(Br)cc2)cc1              TGI  > 100 µM
10        CCC(=O)Nc1nnc(Cc2ccc(OC)c(OC)c2)s1              TGI  > 100 µM

###

test system: OVCAR-5 ovarian; experiment: NCI tumour cell line growth inhibition, 48 h
List of TGI values.

compound	comparison.sign	TGI, µM
CCS(=O)(=O)c1ccc(OC)c(Nc2ncc(-c3cccc(F)c3)o2)c1	>	25
O=C1NC(=NCCc2ccc(Br)cc2)S/C1=C\c1ccc2ncccc2c1	>	25
CC1=C2C=CC(=O)C[C@@]2(C)CCC1	>	100
O=C1[C@@H]2C(c3ccccc3[N+](=O)[O-])=NO[C@@H]2C(=O)N1c1ccc(Cc2ccc(N3C(=O)[C@H]4C(c5ccccc5[N+](=O)[O-])=NO[C@H]4C3=O)cc2)cc1	>	100
CC1(C)C(=O)/C=C\C(=O)C(C)(C)C(=O)/C=C\C(=O)C(C)(C)C2=CC=C(O2)C(C)(C)C(=O)/C=C\C1=O	=	37.1
CN(C)CC1CCC/C(=C\c2ccc(OC(=O)/C=C/c3ccc(Cl)cc3)cc2)C1=O (stereo not given)	=	25.7
Fc1ccc(C(OCCN2CCC3CCC(C2)N3C/C=C/c2cccs2)c2ccc(F)cc2)cc1 (stereo not given)	=	25.9
COc1ccc2c3/c(=C\c4ccc(N(C)C)cc4)c4ccccc4n3[n+](C)c2c1	=	2.22
O=C1/C(=C/c2ccc(C(F)(F)F)cc2)COc2ccc(O)c(O)c21	=	3.09
CCOC(=O)C1C(=O)CC(=O)C2CCCCC21 (stereo not given)	>	100
CNC(=O)CNC(=O)N(C[C@@H]1CCCN1C(=O)[C@H](CC(C)C)NC(=O)OC(C)(C)C)C(C)C	>	100
O=C1CN(c2cccc(C(F)(F)F)c2)C(=O)CN1CCN1CC(=O)N(c2cccc(C(F)(F)F)c2)CC1=O	>	100
COc1cc2c[n+](C)c3c4cc(OC)c(OCc5ccccc5)cc4c(OCc4ccccc4)cc3c2cc1OC	>	100
COc1cc(O)c(Cc2ccccc2O)c(O)c1C(=O)CCc1ccccc1	=	21.8
CCN(CC)C(=S)SS(C)(=O)=O	=	42.2

###

test system: SW-620 colon; test: NCI tumour cell line growth inhibition, 48 h; in the data active = GI50 below about 0.43 µM; inactive = the rest
Outcome codes: active, inactive

> print(dat)
                                   compound     class
1  COc1cc(C(=O)O[C@H](C(=O)NCCCCNC(=O)[C@@H](OC(=O)c2cc(OC)cc3c(C)cccc23)[C@]2(C)CO2)[C@]2(C)CO2)c2cccc(C)c2c1    active
2  CN1CCN(c2ccc(NC3=CC(=O)c4ncncc4C3=O)cc2)CC1    active
3  COc1ccc(-c2[nH]ncc2Nc2cc(OC)c(OC)c(OC)c2)cc1  inactive
4  N#Cc1c(N)nc(N2CCOCC2)c(C#N)c1-c1c(Cl)cccc1Cl  inactive
5  CSc1nc2c(c(=O)n1C)C(c1ccccc1)C1=C(N2)/C(=C/c2ccccc2)CCC1 (stereo not given)  inactive

###

Quick list: GI50 per entry.
test system: SK-MEL-5 melanoma; test: NCI tumour cell line growth inhibition, 48 h
measured.metric: GI50

> print(dat)
                                  structure       val
1  O=C1C(=C([O-])c2ccccc2)C(=O)c2ccccc21.O=C1C(=C([O-])c2ccccc2)C(=O)c2ccccc21.[Ni+2]  18200 nM
2              COc1ccc([I+]c2ccc(OC)cc2)cc1   1800 nM
3    Oc1[nH]c2ccccc2c1C=Nc1ccc(-n2cncn2)cc1   8740 nM
4  CC(=O)c1c(C)c2cnc(Nc3ccc(N4CCNCC4)cn3)nc2n(C2CCCC2)c1=O   2580 nM
5      CSc1ccc(C(=O)/C=C/c2ccc(Cl)cc2Cl)cc1  21900 nM
6  COC(=O)c1cc(-c2ccc(S(C)(=O)=O)cc2)[nH]c1N/N=C/c1c(Cl)cccc1Cl    427 nM
7     Cn1c(I)c(C#C[Si](C)(C)C)c(=O)[nH]c1=O  17100 nM
8  O=C1/C(=C/c2ccc(C(F)(F)F)cc2)COc2ccc(O)c(O)c21   1730 nM
9  COc1cnccc1Nc1nc(-c2nn(Cc3c(F)cc(OCCO)cc3F)c3ccccc23)ncc1OC   2910 nM

###

tested on: CCRF-CEM leukemia; assay: NCI tumour cell line growth inhibition, 48 h
measured.metric: TGI

> print(dat)
                                    compound  measured.metric       val
 1  O=C1C(Cl)=C(NCCCN(CCCNC2=C(Cl)C(=O)c3ccccc3C2=O)C2=C(Cl)C(=O)c3ccccc3C2=O)C(=O)c2ccccc21              TGI  > 100 µM
 2         COc1ccc(/C=C/c2ccnc3ccccc23)cc1OC              TGI     31 µM
 3  COc1cc(O)c(Cc2ccccc2O)c(O)c1C(=O)CCc1ccccc1              TGI   22.5 µM
 4            NC(=O)/N=C/c1c(O)c2ccccc2oc1=O              TGI  > 100 µM
 5         Cc1nn2c(c1C#N)NNc1c-2sc(=N)nnc1=O              TGI  > 100 µM
 6  COc1ccc2c(c1)/C(=N/OC(C)=O)c1c-2c(OC)nc2ccccc12              TGI  > 100 µM
 7  COC(=O)C1(Cc2ccccc2)Cc2cc3c(cc2C1O)CCC3 (stereo unspecified)              TGI   60.1 µM
 8              CN(C)N=Nc1ccc(S(N)(=O)=O)cc1              TGI  > 100 µM
 9  COc1ccc(NC(=O)C(=O)Cc2ccc([N+](=O)[O-])c([N+](=O)[O-])c2CC(=O)C(=O)Nc2ccc(OC)cc2OC)c(OC)c1              TGI  > 100 µM
10                  Cc1[nH]c2nccn2c(=O)c1CCO              TGI   > 10 µM
11                 O=S(O)c1cc(Cl)c(O)c(Cl)c1              TGI  > 100 µM
12  CC(NNC(=O)c1ccncc1)c1cccc(C(F)(F)F)c1 (stereo unspecified)              TGI  > 100 µM
13  CCCN(CCC)C(=O)c1c(N2CCN(C)CC2)c2cccnc2n2c(C)cnc12              TGI  > 100 µM
14             N#COc1ccc(Oc2ccc(OC#N)cc2)cc1              TGI   50.4 µM
15  O=C1CN(c2cccc(C(F)(F)F)c2)C(=O)CN1CCN1CC(=O)N(c2cccc(C(F)(F)F)c2)CC1=O              TGI  > 100 µM
16  COc1ccc(-c2oc3cc(O)c(OC)c(O)c3c(=O)c2O)cc1              TGI   14.8 µM
17  COc1ccc2c(c1)-c1c(c3cc(OC)ccc3n(CCN(C)C)c1=O)C2=O              TGI   1.76 µM
18       CCCCCCCCCCCC[N+]12CC[N+](C)(CC1)CC2              TGI   53.3 µM
19  NS(=O)(=O)c1ccc(N=Nc2c[nH]c(=O)c(O)c2)cc1              TGI   44.1 µM
20  O=C1C(=C([O-])c2ccccc2)C(=O)c2ccccc21.O=C1C(=C([O-])c2ccccc2)C(=O)c2ccccc21.[Ni+2]              TGI  > 100 µM
21        CCC(=O)Nc1nnc(Cc2ccc(OC)c(OC)c2)s1              TGI  > 100 µM
22  CCCCCCCCCCCCOC1C(COCCN2CCCCC2)OC2OC(C)(C)OC21 (stereo unspecified)              TGI   2.99 µM
23  Cc1cc(C)c2c(n1)S(=O)(=O)N(CCCN1CCN(c3cccc(Cl)c3)CC1)/C(=C(\O)c1ccc(Br)cc1)C2=O              TGI  > 100 µM
24  Cc1cc(O)c2c(c1)C(C1c3cccc(O)c3C(=O)c3c(O)cc(C)cc31)c1cccc(O)c1C2=O (stereo unspecified)              TGI   10.1 µM
25  CC(C)(C)OC(=O)N1N=CCC1c1ccccc1 (stereo unspecified)              TGI  > 100 µM
26              CC1=C2C=CC(=O)C[C@@]2(C)CCC1              TGI  > 100 µM

Values from PubChem BioAssay (NCI)
